tested on: SR leukemia; assay: NCI tumour cell line growth inhibition, 48 h
For each entry below, report its TGI value.
Write it as a number; the unit µM goes unstated.

Input: Which TGI is listed for C/C(=N\N=C(\[Se])N1CCN(c2ccccn2)CC1)c1ccccn1 ?
Output: 54.4

Input: Would you kindly repeat that for O=C(O)C1=C(C(=O)O)N(c2ccncc2)C(c2ccco2)=CC1c1ccccc1[N+](=O)[O-] (stereo not given) ?
Output: 5.68

Input: Would you kindly repeat that for N#C/C(=C\c1ccc(O)c(O)c1)C(=O)NC1CCC(CC2CCC(NC(=O)/C(C#N)=C/c3ccc(O)c(O)c3)CC2)CC1 (stereo not given) ?
Output: 3.36

----------
For each entry below, report its TGI value.
tested on: SF-539 CNS; assay: NCI tumour cell line growth inhibition, 48 h

Input: Which TGI is listed for CCOP(=O)(OCC)C(N)Cc1ccc(OC)c(OC)c1 (stereo unspecified) ?
Output: > 100 µM

Input: Would you kindly repeat that for O=C(O)C1=C(C(=O)O)N(c2ccncc2)C(c2ccco2)=CC1c1ccccc1[N+](=O)[O-] (stereo unspecified) ?
Output: 4.55 µM

Input: Would you kindly repeat that for CCOC(=O)c1c2c(n(Cc3ccccc3)c1C)-c1ccccc1C(=O)C2=O ?
Output: 34.4 µM

Input: Would you kindly repeat that for CN(C)CCNC(=O)Cn1cc([N+](=O)[O-])c(=O)c2ccccc21 ?
Output: > 100 µM

Input: Would you kindly repeat that for O=c1oc2nc(-c3ccccc3)cc(C(F)(F)F)c2n1Cc1ccccc1 ?
Output: > 100 µM

Input: Would you kindly repeat that for CO/N=C(\C)c1cccc(Nc2cc(-c3ccccc3)nc3c(O)cccc23)c1 ?
Output: 39.9 µM

Input: Would you kindly repeat that for COc1ccc2c(c1)C(=O)C(=O)c1cc(O)c(OC)c(OC)c1-2 ?
Output: 3.35 µM

Input: Would you kindly repeat that for CCC1(CCSC(=N)N)C(=O)NC(=O)NC1=O ?
Output: > 100 µM

Input: Would you kindly repeat that for CCN(CC)CCCNc1nc(=O)[nH]c(C)c1C(=O)Nc1c2ccccc2nc2ccccc12 ?
Output: 41.8 µM

Input: Would you kindly repeat that for CC1(C)CC(=O)C2=C(C1)S/C(=C1/SC3=C(S1)C(=O)CC(C)(C)C3)S2 ?
Output: > 251 µM

Input: Would you kindly repeat that for CCCC[N+](CCCC)=c1ccc2nc3c(C)cc(N(CC)CC)cc3sc-2c1 ?
Output: 1.14 µM

Input: Would you kindly repeat that for Oc1c(CN2CCCC2)cc(COCc2ccc(Br)cc2)c2cccnc12 ?
Output: 2.85 µM

Input: Would you kindly repeat that for CC(C)(C)CC(C)(C)c1cc2c(O)c(c1)Cc1cc(C(C)(C)CC(C)(C)C)cc(c1O)Cc1cc(C(C)(C)CC(C)(C)C)cc(c1O)Cc1cc(C(C)(C)CC(C)(C)C)cc(c1O)Cc1cc(C(C)(C)CC(C)(C)C)cc(c1O)Cc1cc(C(C)(C)CC(C)(C)C)cc(c1O)C2 ?
Output: > 100 µM

Input: Would you kindly repeat that for O=c1c2ccccc2n2n1CC(O)C2 (stereo unspecified) ?
Output: > 100 µM

Input: Would you kindly repeat that for Cc1n[nH]c(=O)n1/N=C/c1cccs1 ?
Output: > 100 µM

Input: Would you kindly repeat that for CN(C)c1ncnc2c1nnn2C1OC(CO)C(O)C1O (stereo unspecified) ?
Output: > 90.6 µM

Input: Would you kindly repeat that for O=C(c1ccco1)c1nc2cc(F)ccc2[n+]([O-])c1C(F)(F)F ?
Output: > 100 µM

Input: Would you kindly repeat that for N/C(=N\N=C\c1c[nH]c2cc(C(F)(F)F)ccc2c1=O)NO ?
Output: > 10 µM

Input: Would you kindly repeat that for CCn1c(-c2ccc(F)cc2)nc2c1C(=O)c1ccccc1C2=O ?
Output: > 100 µM

Input: Would you kindly repeat that for O=C(Nc1ccc(Cl)cc1F)c1cc(I)ccc1O ?
Output: 5.78 µM

Input: Would you kindly repeat that for C/C(=N\Oc1cc(Cl)ncn1)c1ccccn1 ?
Output: > 100 µM

----------
For each entry below, report its GI50 value.
test system: SK-MEL-28 melanoma; assay: NCI tumour cell line growth inhibition, 48 h

Input: Which GI50 is listed for C1C[S][Ge]2([S]CCO1)[S]CCOCC[S]2 ?
Output: > 100000 nM

Input: Would you kindly repeat that for COc1ccc2c(c1)C(=O)C(=O)c1cc(O)c(OC)c(OC)c1-2 ?
Output: 1880 nM

Input: Would you kindly repeat that for O=C(Nc1cccc(Oc2nnc(Cl)c3ccccc23)c1)Nc1ccc(Cl)c(C(F)(F)F)c1 ?
Output: 933 nM

Input: Would you kindly repeat that for O=C1c2ccccc2C(=Cc2ccccc2)c2ccccc21 ?
Output: 4230 nM

Input: Would you kindly repeat that for COc1cc2nccc(Oc3ccc(NC(=O)C4(C(=O)Nc5ccc(F)cc5)CC4)cc3)c2cc1Oc1ccc(N)cn1 ?
Output: 2560 nM

----------
tested on: HT29 colon; test: NCI tumour cell line growth inhibition, 48 h; in the data active means GI50 below about 0.43 µM; inactive means the rest
Reply using exactly one outcome from 1.0 = active, 0.0 = inactive

Input: Could you check what this test reported for O=C(CCCN1CCOCC1)Nc1ccc(Cn2nnc3c2C(=O)c2nnn(Cc4ccc(NC(=O)CCCN5CCOCC5)cc4)c2C3=O)cc1 ?
Output: 0.0

Input: Would you kindly repeat that for CN(C)c1ncnc2c1nnn2C1OC(CO)C(O)C1O (centres undefined) ?
Output: 1.0

Input: Would you kindly repeat that for CC/C(=C(/CC)c1ccc([O-])cc1)c1ccc([O-])cc1.CC/C(=C(\CC)c1ccc([O-])cc1)c1ccc([O-])cc1.O=C([CH-]C(=O)c1ccccc1)c1ccccc1.O=C([CH-]C(=O)c1ccccc1)c1ccccc1.O=C([CH-]C(=O)c1ccccc1)c1ccccc1.O=C([CH-]C(=O)c1ccccc1)c1ccccc1.[Ti+4].[Ti+4] ?
Output: 0.0

Input: Would you kindly repeat that for O=C(CN1CCN(c2ccc(Cl)cc2)CC1)N1CCN(c2nnc(-c3ccc(Cl)cc3)c(-c3ccc(Cl)cc3)n2)CC1 ?
Output: 0.0

----------
tested on: OVCAR-3 ovarian; assay: NCI tumour cell line growth inhibition, 48 h
Measurement label: TGI

Input: Which TGI is listed for CC(C)(C#N)c1cc(F)cc(C(=O)Nc2cc(Nc3ncccc3-c3ncnc4nc[nH]c34)ccc2F)c1 ?
Output: > 10 µM

Input: Would you kindly repeat that for CCN(CC)CCCNc1nc(=O)[nH]c(C)c1C(=O)Nc1c2ccccc2nc2ccccc12 ?
Output: 51.6 µM

Input: Would you kindly repeat that for COCc1cc2c(cc1/C(=C/[N+](=O)[O-])CS(=O)(=O)c1ccccc1)OCO2 ?
Output: > 100 µM

Input: Would you kindly repeat that for OCC1OC(OCC(O)C(O)C(O)C(/C=N/Nc2ccccc2)=N/Nc2ccccc2)C(O)C(O)C1O (stereo not given) ?
Output: > 100 µM

Input: Would you kindly repeat that for COc1cc2nccc(Oc3ccc(NC(=O)C4(C(=O)Nc5ccc(F)cc5)CC4)cc3)c2cc1Oc1ccc(N)cn1 ?
Output: > 100 µM

Input: Would you kindly repeat that for O=c1c2ccccc2n2n1CC(O)C2 (stereo not given) ?
Output: > 100 µM

Input: Would you kindly repeat that for C[C@]12CCc3nonc3C1CC[C@@H]1C2CC[C@]2(C)NC(=O)CCC12 (stereo not given in full) ?
Output: > 100 µM

Input: Would you kindly repeat that for C1=Nc2sc3c(c2C2=NCCN12)CCCC3 ?
Output: 32.3 µM

Input: Would you kindly repeat that for CCSC1(SCC)CC(Cc2ccc(OC)cc2)N(C=NC(C)(C)C)C1 (stereo not given) ?
Output: > 100 µM

Input: Would you kindly repeat that for CCOC(=O)C1=C(O)CSC1=Nc1ccccc1 ?
Output: > 100 µM

----------
test system: ACHN renal; assay: NCI tumour cell line growth inhibition, 48 h
Measurement label: TGI

Input: Which TGI is listed for C1=Nc2sc3c(c2C2=NCCN12)CCCC3 ?
Output: 30.8 µM

Input: Would you kindly repeat that for CC/C=C\C/C=C\C[C@H](O)C/C=C1/C(=O)C=C[C@@H]1C/C=C\CCCC(=O)O ?
Output: 18.5 µM

Input: Would you kindly repeat that for O=C(Nc1ccc(Oc2ccc3nc(NC(=O)c4ccccc4)[nH]c3c2)cc1)Nc1cc(C(F)(F)F)ccc1F ?
Output: > 25 µM

Input: Would you kindly repeat that for O=C1C2=Nc3ccccc3C(O)N2c2ccccc21 (stereo not given) ?
Output: > 100 µM

Input: Would you kindly repeat that for Cc1n[nH]c(=O)n1/N=C/c1cccs1 ?
Output: > 100 µM

Input: Would you kindly repeat that for CN[C@@H](C)[C@@H](N)c1ccccc1 ?
Output: > 100 µM

Input: Would you kindly repeat that for C=C(C)C1CC2(C)C(C)CC(OC(=O)/C(C)=C\C)CC2C(OC(=O)/C(C)=C\C)C1O (stereo not given) ?
Output: > 100 µM

Input: Would you kindly repeat that for CCOC(=O)CC1(O)CCCCC1(Sc1ccc(C)cc1)Sc1ccc(C)cc1 (stereo not given) ?
Output: > 100 µM

Input: Would you kindly repeat that for CCOC(=O)C1=C(C)OC(=O)[C@@]2(OC)C=C(Cl)[C@@]12C ?
Output: > 100 µM

Input: Would you kindly repeat that for CN(Cc1cnc2nc(N)nc(N)c2n1)c1ccc(C(=O)NCS(=O)(=O)O)cc1 ?
Output: > 100 µM

Input: Would you kindly repeat that for CC(=O)O[C@H](C[C@H](C(C)C)N(C)C(=O)[C@@H](NC(=O)[C@H]1CCCCN1C)C(C)C)c1nc(C(=O)N[C@@H](Cc2ccccc2)C[C@H](C)C(=O)O)c(C(C)C)s1 ?
Output: > 18.5 µM

Input: Would you kindly repeat that for CC(=O)OC/C=C/Cn1ncc(=O)[nH]c1=O ?
Output: > 100 µM

Input: Would you kindly repeat that for C/C(=N\Oc1cc(Cl)ncn1)c1ccccn1 ?
Output: > 100 µM

Input: Would you kindly repeat that for CCOC(=O)N(c1ccccc1)c1cc(=O)n2ccccc2n1 ?
Output: > 100 µM

Input: Would you kindly repeat that for CC/C(=C(/CC)c1ccc([O-])cc1)c1ccc([O-])cc1.CC/C(=C(\CC)c1ccc([O-])cc1)c1ccc([O-])cc1.O=C([CH-]C(=O)c1ccccc1)c1ccccc1.O=C([CH-]C(=O)c1ccccc1)c1ccccc1.O=C([CH-]C(=O)c1ccccc1)c1ccccc1.O=C([CH-]C(=O)c1ccccc1)c1ccccc1.[Ti+4].[Ti+4] ?
Output: > 100 µM

Input: Would you kindly repeat that for COC1CCC(O)C(/C=C/[N+](=O)[O-])C1 (stereo not given) ?
Output: 29.9 µM

Input: Would you kindly repeat that for c1ccc(-c2cc(C3CO3)c3ccccc3n2)cc1 (stereo not given) ?
Output: 32.8 µM

Input: Would you kindly repeat that for O=c1cccccc1NCCCCCCNc1cccccc1=O ?
Output: > 100 µM

Input: Would you kindly repeat that for O=C(O)CCSCc1ccc(I)cc1 ?
Output: > 100 µM

Input: Would you kindly repeat that for N/C(=N\N=C\c1c[nH]c2cc(C(F)(F)F)ccc2c1=O)NO ?
Output: > 10 µM

Origin of measurements: PubChem BioAssay (NCI)
